Protocol Text: HepG2 cytotoxicity, primary screen, cytotoxicity control for P. falciparum antimalarial project, cell-based, ATP luminescence (AID 2303);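 further: 0% = DMSO wells and 100% = digitonin-killed cells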
Study Conditions: HepG2 viability, 24-48 h, at 10 µM, stronger effect = higher value
Observed Property: inhibition (%)
Expressed in %, but write only the number.

Please review the following examples before continuing.
Molecule	inhibition (%)
S=C(Nc1ccc(Cl)cc1)Nc1ccc(Nc2ccccc2)cc1	14
O=C(Nc1cccc(-c2cccc(-c3nc4ccccc4[nH]3)c2)c1)c1csnn1	31
Fc1ccc2c(NN=CC=Cc3ccccc3)ccnc2c1	-2
NS(=O)(=O)c1cccc(Nc2nccc(-c3cnn4ncccc34)n2)c1	39

Requested read-out: inhibition. Entry: `CC(C)CNC(=O)CN1C(=O)C(c2ccccc2)(c2ccccc2)N=C1N`
15

Next molecule: `N#Cc1ccc(C(=O)Nc2ccc(-c3cccc(CN4CCCC4)c3)cc2)cc1`
17

Next molecule: COc1ccc(CC2(c3ccc(F)cc3)N=C(N)N(CCCc3ccccc3)C2=O)cc1 (stereo not given)
38

Next molecule: `COc1ccc2c(c1)CCN(CCN1CCC(CNC(=O)c3ccc(-c4ccc(C#N)cc4)cc3)CC1)C2`
40

Next molecule: `CC(C)Nc1cc(C(=O)N[C@@H](Cc2ccccc2)[C@H](O)CNC2CCOCC2)c(F)c(N2CCCCS2(=O)=O)c1`
2

Next molecule: `COc1ccc(N2CCN(CCCCNC(=O)c3ccc(NC(=O)c4ccc(Cl)cc4)cc3)CC2)c(C)c1`
42

These data points were gathered from PubChem BioAssay.
